# test-name: protein stability index of a GFP-peptide fusion (yeast GPS) (PSI 1-4); higher = more stable; sorted into four equal gates, so the index is relative within each strain
# condition: ubr1∆
readout-type: protein stability index
Answer as a number with no unit attached.

sequence-chain	measured
WGAETDELSMIMEHFSQ [RPS12]	3.29

# get_value(readout='protein stability index', item= TSIHSTISILAAPSGNY [RRP43] )
1.67

What would you report for KARTNLHQHVVLKCLKS [RPC34] ?
2.23

What would you report for LIHPENFTCNRKILNFK [SWI1] ?
2.88

What would you report for AAPAAAAAEIADEPVKA [FAS2] ?
2.53

What would you report for AAVETLYQDMAARHRAR [RPL20A] ?
2.91

What would you report for LPGELAKHAVSEGTRAV [HTB1] ?
3.31

* * *

# test-name: protein stability index of a GFP-peptide fusion (yeast GPS) (PSI 1-4); higher = more stable; sorted into four equal gates, so the index is relative within each strain
# condition: san1∆
Class (by protein stability index) -- interval 1 (below 2), interval 2 (2 to below 3), interval 3 (3 or more)

Use these answered entries as a reference point.
sequence-chain	discrete-label
LRKIDMLQKKLVEVEDE [SRB7]	interval 3
GDFLDFQVHERLAPLIK [ARP7]	interval 3
KIAGIEGHLAEIRAKEY [SRB2]	interval 3
VLAAQSIGEPATQMTLN [RPO21]	interval 2
FTTLLESKQDGLSILFL [YML103C/NUP188]	interval 2
VHGKAPMLMANNDVFTI [SSN3]	interval 2
THSKLFADKKRDCIDIS [PRP8]	interval 3
DSAKEWPQSKNCEYEDP [RPB3]	interval 3

Could you place PTLPTNHNKTKLLKSLK [PRP8] in its proper category? Many thanks.
interval 1

What would you report for TIEHAADITDGNNTELT [YCG1] ?
interval 3

* * *

# test-name: protein stability index of a GFP-peptide fusion (yeast GPS) (PSI 1-4); higher = more stable; sorted into four equal gates, so the index is relative within each strain
# condition: ubr1∆
readout-type: protein stability index
Answer as a number with no unit attached.

sequence-chain	protein stability index
NAVISHANAAAVYFADT [SIN4]	2.3
DTIATSATPNAAAFSQQ [GAL11]	2.82
VEEAHDFNMKLAINAKT [RPB2]	3.08
QEQGSFQHILRLLNTNV [RPS18A]	3.03
RELREVIELPLKNPEIF [RPT4]	3.06

# get_value(readout='protein stability index', item= QIYGFEGLNQRNQVQTE [YGR119C/NUP57] )
3.39

What would you report for SVPLRKGDRALLVKLSK [BRR2] ?
2.99

* * *

# test-name: protein stability index of a GFP-peptide fusion (yeast GPS) (PSI 1-4); higher = more stable; sorted into four equal gates, so the index is relative within each strain
# condition: pdr5∆
Classification field: true (1) = protein stability index at or over 3; false (0) = protein stability index under 3.

Use these answered entries as a reference point.
sequence-chain	discrete-label
PVSTASYRLLPQINILQ [RPC40]	false (0)
MSAKAQNPMRDLKIEKL [RPL11A]	true (1)
TIRVVTENKIFVEVERA [RPN5]	false (0)
IRNVIMSASNANDFQLT [SRB8]	false (0)
LYGTAIGARSQGAKTYL [PRE5]	true (1)
SCQIAQPYEDRPFEGLF [RRP45]	true (1)
VLFITPDIVGHEFTLSF [BRR2]	false (0)
RKSAPVDSWDREFLKVD [SKP1]	true (1)
KSSELELQKLVHDLNKY [SMC2]	true (1)
RAQVLSLGDGTNYYLTT [CSL4]	false (0)

Say whether APTRELVQQIQKETQKV [PRP28] shows protein stability index of 3 or more.
true (1)

These measurements were taken from the supplement of paper PMC9732359.
